Experiment: HILIC, HILICON iHILIC-(P) Classic, HILIC, PEEK, 50 × 2.1 mm, 5 µm, 45 °C, 0.12 mL/min, estimated dead time 0.92 min; A: water + 20 mM ammonium carbonate; B: acetonitrile; gradient (min/%B) 0/90 1/90 21/20 21.5/20 26.5/20 27.5/90 35/90
Details: stereoisomer not certain
Provide the recorded LC retention time for the entries that follow.
Give the number; min is assumed, so skip it.

What LC retention time value was documented for this compound, CC(C)CC(N)C(=O)O (stereo not given) ? 5.45

What LC retention time value was documented for this compound, Nc1nc2c(ncn2C2OC(COP(=O)(O)OP(=O)(O)O)C(O)C2O)c(=O)[nH]1 (stereo not given) ? 15.2

What LC retention time value was documented for this compound, NC(=O)C1=CN(C2OC(COP(=O)(O)OP(=O)(O)OCC3OC(n4cnc5c(N)ncnc54)C(O)C3O)C(O)C2O)C=CC1 (stereo not given) ? 9.33

What LC retention time value was documented for this compound, NC(Cc1ccccc1)C(=O)O (stereo not given) ? 4.97

What LC retention time value was documented for this compound, O=C(O)CC(O)C(=O)O (stereo not given) ? 13.1

What LC retention time value was documented for this compound, Nc1ccn(C2OC(CO)C(O)C2O)c(=O)n1 (stereo not given) ? 5.92

What LC retention time value was documented for this compound, O=C(O)CCC(=O)O ? 11.8

What LC retention time value was documented for this compound, NC(CCC(=O)O)C(=O)O (stereo not given) ? 9.69

What LC retention time value was documented for this compound, CC(=O)NC(CC(=O)O)C(=O)O (stereo not given) ? 9.96

What LC retention time value was documented for this compound, NC(=O)CC(N)C(=O)O (stereo not given) ? 10.8
